experimental system: T1, human CD3 (human, UniProt P07766 23-207; P09693 23-182; P04234 22-171)
T1 construct: whole, on cells; also called CD3 on Jurkat T cells; CD3 on primary human T cells
assay explanation: apparent KD (KDapp), flow cytometry titration on purified primary human T cells
Experimental: The binding characteristics of the purified anti-CD3 mAbs were assessed in titration studies on purified human primary T cells from different donor samples. […] Starting from 300 nM concentrations of the anti-CD3 mAbs, eight point binding curves were generated from the resultant mean fluorescence intensity (MFI) values obtained through detection of labelled secondary antibody to bound CD3 in flow cytometry experiments (FIGS. 3A and 3B). […]
quantity measured: pKd
Reminder that pKd is minus the log10 of a molar concentration.

binder="F282-2D5 (antibody, V domains shown, also called F282-2D5-2) VH: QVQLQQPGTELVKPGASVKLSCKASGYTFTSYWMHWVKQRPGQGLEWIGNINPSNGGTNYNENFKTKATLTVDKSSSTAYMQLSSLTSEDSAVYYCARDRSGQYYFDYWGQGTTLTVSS VL: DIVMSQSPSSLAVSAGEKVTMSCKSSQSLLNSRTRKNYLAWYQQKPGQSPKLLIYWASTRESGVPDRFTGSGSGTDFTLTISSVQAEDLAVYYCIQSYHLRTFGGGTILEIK" value_observed=9.33
binder="F332-1C9 (antibody, mouse IgG2a, V domains shown, Sister clones 1A10, 5H8, 8B11 share the same entries; also called F332-1C9-2; F332-1C9 (1A10, 5H8, 8B11)) VH: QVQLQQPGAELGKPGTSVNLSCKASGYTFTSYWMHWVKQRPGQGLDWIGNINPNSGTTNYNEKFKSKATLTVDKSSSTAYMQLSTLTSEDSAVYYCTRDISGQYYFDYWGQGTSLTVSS VL: DIVMSQSPSSLAVSAGEKVTMSCKSSQSLLNSRTRKNYLAWYQQKPGQSPKLLIYWASTRESGVPDRFTGSGSGTDFTLIISSVQAEDLAVYYCKQSYSLRTFGGGTKLEIK" value_observed=9.03

Exercise: # input binder: F332-13B4 (antibody, mouse IgG2a, V domains shown, also called F332-13B4-2) VH: QVQLQQSGPELVKPGASVKISCKASGYSFTNSYVHWVKQTPGQGLEWIGWIYPGSTNIKYNEKFKGKATLTADTSSSTVYMQLSSLTSEDSAVYFCARDGSYFFDYWGQGTTLTVSS VL: DIVMSQSPSSLAVSAGEKVTMTCKSSQSLLNSRTRKNYLAWYQQKPGQSPKLLIYWASTRESGVPDRFTGSGSGTDFTLTISSVQAEDLAVYYCKQSYILRTFGGGTKLEIK ; wanted: its pKd
Solution: 10.30
